Measured Plant response rating, Barnyardgrass, listed per entry for reference.
# Test system: barnyardgrass (Echinochloa crus-galli)
# assay: Test A preemergence
# Format: in vivo
# condition.notes: 500 g ai/ha, preemergence; 0 to 100 scale, 0 = no effect, 100 = complete control
# Text: […]
Just the number, please, no unit after it.

Consider the reported Plant response rating, Barnyardgrass for these compounds:
O=C1NCC(c2csc(Br)c2)C1C(=O)Nc1cccc(F)c1F (racemic) [Compound 649] : 90
CN1CC(c2cccc(OC(F)F)c2)C(C(=O)Nc2ccc(F)cc2F)C1=O (centres unmarked) [Compound 617] : 90
O=C1NCC(c2cccc3ccccc23)C1C(=O)Nc1ccccc1C(F)(F)F (racemic) [Compound 712] : 0
CN1CC(c2cc(F)cc(F)c2)C(C(=O)Nc2cccc(F)c2F)C1=O (centres unmarked) [Compound 644] : 90
CC(C)Oc1cccc(C2CN(C)C(=O)C2C(=O)Nc2cccc(F)c2F)c1 (centres unmarked) [Compound 651] : 90
O=C1NCC(c2cccc(C(F)(F)F)c2)C1C(=O)Nc1ccc(Cl)cc1F (racemic) [Compound 675] : 80

(Q) Please supply the value of reported Plant response rating, Barnyardgrass for the item CN1CC(c2ccc(F)c(C(F)(F)F)c2)C(C(=O)Nc2ccccc2S(C)(=O)=O)C1=O (centres unmarked) [Compound 612]
(A) 90

(Q) Please supply the value of reported Plant response rating, Barnyardgrass for the item Cc1ccc(C2CN(C)C(=O)C2C(=O)Nc2ccc(F)cc2F)cc1 (centres unmarked) [Compound 664]
(A) 90

---

# Tested on: barnyardgrass (Echinochloa crus-galli)
# assay: Test A preemergence
# Assay type: in vivo
# condition.notes: Echinochloa crus-galli, pre-emergence, 240 h, 125 g ai/ha, Preemergence, visual injury rating after approximately 10 d; read-out: Barnyardgrass plant response rating (0 to 100 scale, 0 is no effect, 100 is complete control)
observed.property: pest or weed control at 125 g/ha (%)
Just the number please, in %, no unit attached.

Cc1ccc([C@H]2CN(C)C(=O)[C@@H]2C(=O)Nc2cccc(F)c2F)cc1Cl [Compound 1013] : 90
CN1C[C@H](c2cc(F)cc(F)c2)[C@@H](C(=O)Nc2ccc(C(F)(F)F)cc2)C1=O [Compound 968] : 20
CC(C)COc1cccc([C@H]2CNC(=O)[C@@H]2C(=O)Nc2ccc(F)cc2F)c1 [Compound 966] : 80

Would you kindly look at the next entry?
(Q) Please supply the value of reported pest or weed control at 125 g/ha for the item CC(C)Oc1ccc([C@H]2CN(C)C(=O)[C@@H]2C(=O)Nc2ccccc2F)cc1 [Compound 952]
(A) 50

---

# Test system: redroot pigweed (Amaranthus retroflexus)
# assay: Test G Pre-Emergence Protocol
# Type: in vivo
# condition.notes: Amaranthus retroflexus, pre-emergence, 312 h, 250 g ai/ha, evaluated after 13 days, read-out: Pigweed, Redroot damage rating (100=total damage to plant; 0=no damage to plant)
observed.property: pest or weed control at 250 g/ha (%)
Just the number please, in %, no unit attached.

Consider the reported pest or weed control at 250 g/ha for these molecules:
CC(O)c1ccccc1NC(=O)[C@H]1C(=O)N(C)C[C@@H]1c1cccc(C(F)(F)F)c1 (mixture of isomers) : 40
CCc1nccc(NC(=O)[C@@H]2C(=O)N(C)C[C@H]2c2ccc(C(F)(F)F)cc2)c1Cl (racemic) : 0
CSc1ccncc1NC(=O)[C@H]1C(=O)N(C)C[C@@H]1c1cccc(C(F)(F)F)c1 (racemic) : 0
Cc1cc(C2CN(C)C(=O)C2C(=O)Nc2cccc(F)c2F)cc(Cl)c1F (centres unmarked) : 0

Would you kindly look at the next entry?
(Q) Please supply the value of reported pest or weed control at 250 g/ha for the item CN1C[C@H](c2cc(C(C)(C)C)ncn2)[C@@H](C(=O)Nc2ccc(F)c(F)c2F)C1=O (racemic)
(A) 0

---

Measured pest or weed control at 15.625 g/ha, listed per entry for reference.
# Tested on: velvetleaf (Abutilon theophrasti)
# assay: Test G Post-Emergence Protocol
# Type: in vivo
# condition.notes: Abutilon theophrasti, post-emergence, 312 h, 15.625 g ai/ha, evaluated after 13 days (100=total damage to plant; 0=no damage to plant), read-out: Velvetleaf damage rating
Just the number please, in %, no unit attached.

Consider the reported pest or weed control at 15.625 g/ha for these molecules:
CN1C[C@@H](c2ccc(C(F)(F)F)cc2)[C@H](C(=O)Nc2cc(O)nc(C(F)(F)F)n2)C1=O (racemic) [Compound 1614] : 0
CCOc1cc(C2CN(C)C(=O)C2C(=O)Nc2cccc(F)c2F)ccc1Cl (stereo not drawn) [Compound 1686] : 30
CN1C[C@H](c2ccc(Cl)cc2)[C@@H](C(=O)Nc2cccc(F)n2)C1=O [Compound 1399] : 0
CC(O)c1ccccc1NC(=O)[C@H]1C(=O)N(C)C[C@@H]1c1cccc(C(F)(F)F)c1 (mixture of isomers) [Compound 1783] : 0
CN1C[C@@H](c2ccc(C(F)(F)F)cc2)[C@H](C(=O)Nc2cccc(F)c2C#N)C1=O (racemic) [Compound 1637] : 0

Would you kindly look at the next entry?
(Q) Please supply the value of reported pest or weed control at 15.625 g/ha for the item COc1c(Cl)cccc1NC(=O)[C@H]1C(=O)N(C)C[C@@H]1c1ccc(C(F)(F)F)cc1 (racemic) [Compound 1447]
(A) 0

---

Measured pest or weed control at 62.5 g/ha, listed per entry for reference.
# System: giant foxtail (Setaria faberi)
# assay: Test G Pre-Emergence Protocol
# Assay type: in vivo
# condition.notes: Setaria faberi, pre-emergence, 312 h, 62.5 g ai/ha, evaluated after 13 days, 100=total damage to plant, 0=no damage to plant, read-out: plant damage rating, Foxtail, Giant
# Excerpt: Seeds of corn (Zea mays), giant foxtail (Setaria faberi), barnyardgrass (Echinochloa crus-galli), ivy-leaved morning glory (Ipomoea hederacea), redroot pigweed (Amaranthus retroflexus) and velvetleaf (Abutilon theophrasti) were sown in standard soil in pots. […]
Just the number please, in %, no unit attached.

Consider the reported pest or weed control at 62.5 g/ha for these compounds:
Cc1ccc(NC(=O)[C@H]2C(=O)N(C)C[C@@H]2c2ccc(C(F)(F)F)cc2)c(C)c1 (racemic) : 0
Cc1nonc1NC(=O)[C@@H]1C(=O)N(C)C[C@H]1c1ccc(C(F)(F)F)cc1 (racemic) : 0

(Q) Please supply the value of reported pest or weed control at 62.5 g/ha for the item CN1C[C@@H](c2ccc(C(F)(F)F)cc2)[C@H](C(=O)Nc2cccc3c2CCC3)C1=O (racemic)
(A) 60

(Q) Please supply the value of reported pest or weed control at 62.5 g/ha for the item CN1C[C@@H](c2ccc(C(F)(F)F)cc2)[C@H](C(=O)Nc2ccc(Cl)cc2F)C1=O (racemic)
(A) 30

(Q) Please supply the value of reported pest or weed control at 62.5 g/ha for the item CN1C[C@@H](c2ccc(C(F)(F)F)cc2)[C@H](C(=O)Nc2nccc(C(F)(F)F)n2)C1=O (racemic)
(A) 0

---

# System: corn (Zea mays)
# assay: Test G Post-Emergence Protocol
# Assay type: in vivo
# condition.notes: Zea mays, post-emergence, 312 h, 62.5 g ai/ha, evaluated after 13 days, read-out: Corn damage rating (100=total damage to plant; 0=no damage to plant)
# Source text: Seeds of corn (Zea mays), giant foxtail (Setaria faberi), barnyardgrass (Echinochloa crus-galli), ivy-leaved morning glory (Ipomoea hederacea), redroot pigweed (Amaranthus retroflexus) and velvetleaf (Abutilon theophrasti) were sown in standard soil in pots. […]
observed.property: plant injury at 62.5 g/ha (%)
Just the number please, in %, no unit attached.

Consider the reported plant injury at 62.5 g/ha for these molecules:
CN1C[C@@H](c2ccc(C(F)(F)F)cc2)[C@H](C(=O)Nc2cccc3c2CCC3)C1=O (racemic) : 10
CN1C[C@@H](c2ccc(C(F)(F)F)cc2)[C@H](C(=O)Nc2cnn(C)n2)C1=O (racemic) : 0
CSc1nc(NC(=O)[C@@H]2C(=O)N(C)C[C@H]2c2ccc(C(F)(F)F)cc2)n[nH]1 (racemic) : 0
Cc1ccc(NC(=O)[C@H]2C(=O)N(C)C[C@@H]2c2ccc(C(F)(F)F)cc2)c(C)c1 (racemic) : 0

(Q) Please supply the value of reported plant injury at 62.5 g/ha for the item CN1C[C@@H](c2ccc(C(F)(F)F)cc2)[C@H](C(=O)Nc2cccc(F)c2C#N)C1=O (racemic)
(A) 0

(Q) Please supply the value of reported plant injury at 62.5 g/ha for the item CN1C[C@@H](c2ccc(C(F)(F)F)cc2)[C@H](C(=O)Nc2ccccc2Cl)C1=O (racemic)
(A) 40

(Q) Please supply the value of reported plant injury at 62.5 g/ha for the item CN1C[C@H](c2ccc(C(F)(F)F)cc2)[C@@H](C(=O)Nc2cnccc2O)C1=O (racemic)
(A) 10

(Q) Please supply the value of reported plant injury at 62.5 g/ha for the item CN1C[C@@H](c2cncc(F)c2)[C@H](C(=O)Nc2cccc(F)c2F)C1=O (racemic)
(A) 30

(Q) Please supply the value of reported plant injury at 62.5 g/ha for the item CN1C[C@@H](c2ccc(C(F)(F)F)nc2)[C@H](C(=O)Nc2cccc(F)n2)C1=O (racemic)
(A) 0

(Q) Please supply the value of reported plant injury at 62.5 g/ha for the item CN1C[C@H](c2ccc(C(F)(F)F)cc2)[C@@H](C(=O)Nc2cccc3nsnc23)C1=O (racemic)
(A) 0

(Q) Please supply the value of reported plant injury at 62.5 g/ha for the item C[C@@]1(C(=O)Nc2cccc(F)c2F)C(=O)NC[C@@H]1c1ccc(C(F)(F)F)cc1 (racemic)
(A) 0
